Reference source: PubChem BioAssay

# Protocol: binders from COS7 lysate, DM2A8 probe, primary screen, torsin A project, cell lysate, small-molecule microarray, fluorescence 635/667 (AID 1065)
# Condition Label: higher = more signal, COS7 lysate expressing mutant human TOR1A
Exercise: state measured composite z-score for each of the molecules provided.

query: For the molecule CC(C)C(CO)N1C(=O)[C@@H]2[C@H]3C(=O)OCC=C[C@H]3OC23C=CCN(c2ccc4ccccc4c2)C(=O)[C@@H]13 (some centres not stated) , what composite z-score is on record?
result: -0.377

query: Suppose we examine the molecule CC(C)OC(=O)C1=CCC(c2cccc(Cl)c2)O1 (configuration not stated) ; what composite z-score value has been reported?
result: -0.125

query: Endpoint output: composite z-score of `NC(=O)[C@]1(Cc2ccccc2)N=C(c2ccc(OCCCO)cc2)O[C@@H]1c1ccccc1` . Value?
result: -0.911

query: Find the recorded composite z-score belonging to CN1C(=O)C2C=CC(C(O)C(c3ccccc3)c3ccccc3)N(Nc3ccccc3)C2C1=O (configuration not stated) and report it.
result: 0.403

query: Need composite z-score, item `COc1ccc([Si](C)(C)[C@@H]2[C@@H](CCO)O[C@]3(C(=O)N(Cc4cccc(N(C=O)c5ccccc5)c4)c4ccccc43)[C@H]2C)cc1`
result: 0.526

query: I have this molecule here, `O[C@@H](Cc1ccccc1)[C@@H](/C=C/c1ccccc1)NCc1ccccc1Br` , and I need its recorded composite z-score.
result: -1.36

query: Recorded composite z-score for CN1C(=O)C2C=CC(C(O)C(C)(C)C)N(Nc3ccccc3)C2C1=O (configuration not stated) , please?
result: -0.565

query: What does the record list as composite z-score for O=C1C2C=CC(C(O)c3ccc(Br)cc3)N(n3cnnc3)C2C(=O)N1Cc1ccccc1 (configuration not stated) ?
result: 0.52

query: Look up composite z-score: `COC(=O)C(CC#Cc1ccc2c(c1)[C@]1(C(=O)N2)[C@H](C(=O)N2CCCCCCC2)[C@H]2C(=O)O[C@H](c3ccccc3)[C@H](c3ccccc3)N2[C@@H]1c1ccccc1OCCO)C(=O)OC`
result: 2.84

query: Reported composite z-score, molecule `COc1cc(CO)cc(I)c1O[C@H]1C=C(C(=O)NCCO)C[C@@H](N(CCc2cccc(F)c2)C(=O)CCC2CCCC2)[C@@H]1O` : ____
result: 0.825

query: Query: composite z-score; subject: `Cc1ccc(S[C@]2(C(=O)NCC(C)C)CC(=O)N(Cc3ccccc3)[C@@H]2c2ccc(CO)cc2)cc1`
result: -0.674

query: // composite z-score lookup, key: `O=C1O[C@@H](c2ccccc2)[C@@H](c2ccccc2)N2[C@@H](c3ccccc3OCCO)[C@]3(C(=O)Nc4ccc(C#CC5(O)CCCCCC5)cc43)[C@@H](C(=O)NC[C@H](O)c3ccccc3)[C@H]12`
result: 0.142

query: Quick check: composite z-score of `Cc1ccccc1/C=C/C=O` ?
result: -0.623

query: Entry `C=C(/C(=C/C[C@@H](OC(=O)c1ccncc1)c1ccc(CO)o1)c1cc(C(=O)OC)ccc1OC)C(C)C` has what composite z-score?
result: 1.46

query: Entry under review: `O=C1C[C@@](C(=O)O)(c2ccc([N+](=O)[O-])cc2)[C@@H](c2ccc(CO)cc2I)N1CC12CC3CC(CC(C3)C1)C2` . Reported composite z-score?
result: 0.773

query: Given CN1C(=O)C2C=CC(C(O)c3ccccc3)N(NC(=O)OC(C)(C)C)C2C1=O (configuration not stated) , state its recorded composite z-score.
result: 0.583

query: Can you look up the measured composite z-score of `COC(=O)c1c2oc(c1C(=O)OC)C(=O)N[C@H](Cc1ccccc1)Cn1nncc1C1(CCCCC1)NC(=O)N[C@H](CO)CC2` for me?
result: 0.158
